pIC50: −log10 of the molar value.
Header: pIC50 / Human Factor XIIa (Homo sapiens, UniProt P00748) / multiple publications

// known answers, use as guide
Nc1nccc2cc(CNC(=O)c3cnc(NCc4cccnc4)c(Cl)c3)ccc12 | 4.40 to 5.00
Cc1cc2ccc(C(=O)n3nc4c(c3N)CCCC4)cc2o1 | 4.77

Exercise: Which pIC50 is reported for this compound? Nc1nn(C(=O)[C@@H]2CCNc3ccc(F)cc32)c2c1C[C@H](O)CC2 (relative stereo)
Solution: < 4.05

Exercise: Please give the result for Nc1c2c(nn1C(=O)[C@H]1CCNc3ccc(F)cc31)CC[C@@H](N)C2 (stereo in doubt) too.
Solution: 5.52

Exercise: Please give the result for Nc1nccc2cc(CNC(=O)c3cc(Cl)c(CNCc4ccc5c(c4)OCO5)s3)ccc12 too.
Solution: 4.40 to 5.00

Exercise: Please give the result for Nc1nccc2cc(CNC(=O)c3cnc(NCCN4CCCCC4)c(Cl)c3)ccc12 too.
Solution: 5.00 to 5.52

Exercise: Please give the result for CC(C)N[C@H](CCCCN1CCCCC1)C(=O)N1CCN(C2=NC(C)(C)C(c3ccccc3)O2)C[C@H]1C(=O)NCc1cccc(Cl)c1 (some centres unmarked) too.
Solution: 7.86

Exercise: Please give the result for CN1CCC(CNc2ccsc2C(=O)NCc2ccc3c(N)nccc3c2)CC1 too.
Solution: 5.00 to 5.52
